Values compiled from ChEMBL document CHEMBL1201862.

Collected GI50 values appear next to each entry.
- Test system: SW-620
- Measurement notes: NCI tumour cell line growth inhibition, 48 h
Active and inactive are the calls of the source. Cut-off read from the data, not from the text of the source: active = GI50 up to about 1.1 µM and inactive = higher.

Form: item CCOC(=O)C1S/C(=N/c2ccc(Cl)cc2C)N=C1C (stereo not drawn) ; test system SW-620; GI50: 22.3 µM (inactive)

Form: item O=P(Nc1ccccc1)(Oc1ccccc1)N1CCN(c2ccccc2)CC1 (stereo not drawn) ; test system SW-620; GI50: 25.4 µM (inactive)

---

- System: RPMI-8226
- Measurement notes: NCI tumour cell line growth inhibition, 48 h
The source made the active and inactive calls. Rule as the data show it: active = GI50 up to about 1.1 µM and inactive = higher.
Mark one answer only. Choices: active, inactive

Sample answers from the record:
• Cc1nnc(S(=O)(=O)c2ccc(/N=N/c3c(N)nc(N)nc3N)cc2)s1 = inactive
• Cc1cc(N)c2ccccc2[n+]1CCCCCCCCCC[n+]1c(C)cc(N)c2ccccc21 [DEQUALINIUM CHLORIDE] = active
• Cc1cc(N(CCC#N)S(=O)(=O)c2ccccc2)ccc1/C=C1N=C(/C=C/c2ccccc2)OC\1=O = inactive
• CCC12CCCN3CCc4c(n(c5ccccc45)C(O)(C(=O)OC)C1)C32 (centres undefined) = inactive
• COc1cc2c(c(OC)c1OC)-c1ccc(SC)c(=O)cc1C(NC(=O)c1ccccc1)CC2 (centres undefined) = active

What outcome does the record of this test show for CCOC(=O)N/N=C/C1=NN(C(=O)OCC)[S+]([O-])C1C (centres undefined) ?
inactive

What outcome does the record of this test show for CN(c1ccc(Cl)cc1)S(=O)(=O)c1cccc([N+](=O)[O-])c1 ?
inactive

What outcome does the record of this test show for CCCCC(C(=O)CCC(=O)Nc1ccc(Cl)c(Cl)c1)C(=O)C(C)C (centres undefined) ?
inactive

What outcome does the record of this test show for Nc1c(O)c(C(=O)O)cc2ccccc12 ?
inactive

---

- System: NCI-H23
- Measurement notes: NCI tumour cell line growth inhibition, 48 h
Calls of active or inactive are those of the source. Rule as the data show it: active = GI50 up to about 1.1 µM and inactive = higher.
Collected GI50 values appear next to each entry.

- COc1cc(-c2cccs2)sc1-c1cccs1: 15.7 µM (inactive)
- COC(=O)C1(Cc2ccc3c(c2)CCC3)Cc2ccccc2C1=O (stereo not given): 19 µM (inactive)
- CC(C)=C1C(=O)C[C@]2(C)C/C=C(\C)CC/C=C(\C)CC[C@@H]12: 10.2 µM (inactive)
- COCOc1cc(OC)ccc1C/C(=N/O)C(=O)OC: > 100 µM (inactive)

Form: item Cc1c2cc[n+](C)c(C)c2cc2c1[nH]c1ccccc12 ; test system NCI-H23; GI50: 2.05 µM (inactive)

---

- Tested on: CAKI-1
- Measurement notes: NCI tumour cell line growth inhibition, 48 h
Active and inactive are the calls of the source. No stated cut-off is given here; in the data, active = GI50 up to about 1.1 µM and inactive = higher.
Measured metric: GI50

Past entries and their recorded results:
- O=S1(=O)OCCOS(=O)(=O)C1Cc1nc2ccccc2[nH]1: 27 µM (inactive)
- CC1(C)C(=O)c2ccccc2OC1N1CCN(C2Oc3ccccc3C(=O)C2(C)C)CC1 (configuration not stated): > 100 µM (inactive)
- O=C(O)CCc1coc2ccc(O)cc12: > 100 µM (inactive)
- COc1ccc(C2C(C)C(=O)C(C)C(c3ccc(OC)cc3)N2N=O)cc1 (configuration not stated): 246 µM (inactive)
- Nc1c(Br)cc(-c2nc3ccccc3s2)cc1Br: > 100 µM (inactive)
- COc1ccc(NC(=O)/C(=N\NC(=O)C[n+]2ccccc2)c2c(O)c3ccc(O)cc3oc2=O)c([N+](=O)[O-])c1: > 100 µM (inactive)

Kindly consider the entry below.
Form: item O=c1/c(=C/c2cccc3ccccc23)sc2nc3ccccc3n12 ; test system CAKI-1; GI50: > 100 µM (inactive)

---

- System: OVCAR-8
- Measurement notes: NCI tumour cell line growth inhibition, 48 h
Activity calls are given as the source filed them. Rule as the data show it: active = GI50 up to about 1.1 µM and inactive = higher.
Mark one answer only. Choices: active, inactive

- COc1cc2c(c(OC)c1OC)-c1ccc(SC)c(=O)cc1C(CC(=O)Oc1cccc(C#N)c1)C2 (centres undefined): active
- Cc1c2cc[n+](C)c(C)c2cc2c1[nH]c1ccccc12: inactive
- CCCCN(CCCC)/C(=N\C#N)NCc1ccccc1: inactive

What outcome does the record of this test show for O=c1[nH]cc(OCC(F)(F)F)c(=O)[nH]1 ?
inactive

---

Collected GI50 values appear next to each entry.
- System: A549
- Measurement notes: NCI tumour cell line growth inhibition, 48 h
Active and inactive are the calls of the source. Cut-off read from the data, not from the text of the source: active = GI50 up to about 1.1 µM and inactive = higher.

Past entries and their recorded results:
- CCOC(=O)/C(=C\c1ccc(C#N)cc1)C(C)=O: 60.8 µM (inactive)
- COc1cc2c(NCCCCCO)ncnc2c(OC)c1OC: > 100 µM (inactive)

Kindly consider the entry below.
Value of measured GI50 for the entry C=CCCCCCCCCC(=O)NS(=O)(=O)c1ccccc1 : 57.7 µM (inactive)

---

- Test system: HL-60
- Measurement notes: NCI tumour cell line growth inhibition, 48 h
Activity calls are given as the source filed them. Cut-off read from the data, not from the text of the source: active = GI50 up to about 1.1 µM and inactive = higher.
Mark one answer only. Choices: active, inactive

Sample answers from the record:
- Nc1c(Br)cc(-c2nc3ccccc3s2)cc1Br: inactive
- COc1cc2c(c(OC)c1OC)-c1ccc(SC)c(=O)cc1C(NC(=O)c1ccccc1)CC2 (stereo unspecified): active
- COc1ccc(C2C(Cl)C(=O)N2NC(=O)c2ccccc2O)cc1 (stereo unspecified): inactive
- CC1(C)CC(=O)C(CC2C(=O)c3ccccc3C2=O)C(=O)C1: inactive
- COc1ccc(C(=O)c2sc(Nc3ccccc3)nc2N)cc1: inactive

What outcome does the record of this test show for O=C(CC1(O)C(=O)Nc2c(Cl)cc(Cl)cc21)c1ccccc1 (stereo unspecified) ?
inactive

---

- Tested on: MDA-MB-231
- Measurement notes: NCI tumour cell line growth inhibition, 48 h
Activity calls are given as the source filed them. Cut-off read from the data, not from the text of the source: active = GI50 up to about 1.1 µM and inactive = higher.
Measured metric: GI50

Past entries and their recorded results:
• O=C(O)[C@@H]1C2CC([C@@H]1C(=O)O)[C@H](N1C(=O)CCC1=O)[C@@H]2Br (stereo not given in full) = > 100 µM (inactive)
• COc1ccccc1C1SCC(=O)N1c1ccc(-n2c(-c3ccccc3)nc3ccccc3c2=O)cc1 (stereo not given) = 47.6 µM (inactive)
• CCOC(=O)c1ccc(N(C)Cc2cnc3nc(N)nc(N)c3n2)cc1 = 21.7 µM (inactive)

Value of measured GI50 for the entry c1ccc(-c2cc(-c3cccs3)c(-c3cccs3)o2)cc1 : > 100 µM (inactive)

Value of measured GI50 for the entry COc1ccc(C2SCC(=O)N2NC(=O)c2ccc(NC(C)=O)cc2)cc1 (stereo not given) : 26.5 µM (inactive)

Value of measured GI50 for the entry COc1ccc(C(=O)c2sc(Nc3ccccc3)nc2N)cc1 : > 75.7 µM (inactive)

Value of measured GI50 for the entry CCc1ccc2oc(=O)ccc2c1 : > 10 µM (inactive)

Value of measured GI50 for the entry CCOC(=O)CCC(NC(=O)C(CCC(=O)OCC)NC(=O)C(Cc1ccc([N+](=O)[O-])cc1)NC(C)=O)C(=O)NNC(=O)OC(C)(C)C (stereo not given) : > 100 µM (inactive)

Value of measured GI50 for the entry COC(=O)c1c(O)ccc2c1c1c(n2Cc2cccc(C)c2)C(=O)c2ccccc2C1=O : 16.1 µM (inactive)

Value of measured GI50 for the entry O=C(/C=C1\Sc2ccccc2N=C1CC(=O)c1ccccc1)c1ccccc1 : 6 µM (inactive)

---

- System: SN12C
- Measurement notes: NCI tumour cell line growth inhibition, 48 h
Active and inactive are the calls of the source. No stated cut-off is given here; in the data, active = GI50 up to about 1.1 µM and inactive = higher.
Measured metric: GI50

- Cc1ccc(-c2c(C#N)c(-c3ccc(C)cc3)n(NS(=O)(=O)c3ccccc3)c(=O)c2C#N)cc1: 62.2 µM (inactive)
- O=c1/c(=C/c2ccccc2F)sc2nc3ccccc3n12: > 100 µM (inactive)

Form: item CC(C)(NC(=O)OCc1ccccc1)C(=O)OC(=O)C(C)(C)NC(=O)OCc1ccccc1 ; test system SN12C; GI50: > 100 µM (inactive)

Form: item COC(=O)c1c(O)ccc2c1c1c(n2Cc2cccc(C)c2)C(=O)c2ccccc2C1 ; test system SN12C; GI50: 12.9 µM (inactive)

Form: item CC1=NOC(=O)/C1=C/c1ccccc1O ; test system SN12C; GI50: > 100 µM (inactive)

Form: item N#Cc1c(-c2ccc(Cl)cc2)c(C#N)c(=O)n(NS(=O)(=O)c2ccccc2)c1S ; test system SN12C; GI50: 25.2 µM (inactive)

Form: item Cc1ccc(Nc2ccc(Nc3ccc(C)cc3S(=O)(=O)O)c3c2C(=O)c2ccccc2C3=O)c(S(=O)(=O)O)c1 ; test system SN12C; GI50: > 100 µM (inactive)

Form: item COC(C)(C)C1(O)CC[C@@H](C)CC1=O (some centres undefined) ; test system SN12C; GI50: > 100 µM (inactive)

Form: item CCCCn1c(C)c(C)c2c1NN=C(C#N)S2(=O)=O ; test system SN12C; GI50: > 100 µM (inactive)
